TARGET: Serine/threonine-protein kinase pim-2 (Homo sapiens);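 also: each value is a mean of the inhibition measurements against the kinase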
RUN PARAMETERS: at 1 µM
PROPERTY NAME: inhibition (%)
Enter your answer as a number in %; do not include the unit.

CCn1c(-c2nonc2N)nc2c(C#CC(C)(C)O)nc(O[C@@H](CN)c3ccccc3)cc21 | 20.6
NS(=O)(=O)c1ccc(-c2ccc3c(NC(=O)C4CC4)n[nH]c3c2)cc1 | 0.28
COc1cccc(COc2cc(-n3cnc4ccccc43)sc2C(N)=O)c1 | 1.31
COc1cccc(-n2ncc3c(N/N=C/c4ccncc4)ncnc32)c1 | 1.69
COc1cc2c(cc1Nc1nc(Nc3ccsc3C(N)=O)c3cc[nH]c3n1)N(C(=O)CN(C)C)CCC2 | 3.29

Please look at the following compound next.
**Query** Specify measured inhibition for CCn1c(-c2nonc2N)nc2c(C#CC(C)(C)O)ncc(OC[C@@H]3CCCN3)c21 .
**Result** 7.09
